B1: TPR t1 (parent)
chain: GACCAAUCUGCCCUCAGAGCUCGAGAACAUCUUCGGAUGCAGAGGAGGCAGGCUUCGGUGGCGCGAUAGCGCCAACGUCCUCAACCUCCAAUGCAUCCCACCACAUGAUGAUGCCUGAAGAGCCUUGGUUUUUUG

# Variants of: B1
# PROCEDURE_DETAILS: polymerase ribozyme fitness, log enrichment relative to wild type (log ratio); higher = more active; in vitro selection for triplet polymerase activity
# label = bin(measured polymerase ribozyme fitness (log ratio)), where bins are bottom bin: < -3; middle bin: ≥ -3 and < -0.8; top bin: ≥ -0.8

| CHANGE | CLASS_NAME |
| --- | --- |
| C22A C49U C73G | bottom bin |
| G57U U132C | top bin |
| G36C G47A G110A G127U | middle bin |
| G71U A95C C101U G127A | bottom bin |
| G10A C70A | middle bin |
| C72U A83U C98U | top bin |
| C13U C98A C115U | bottom bin |
| C70G G117U | bottom bin |
| C64U C123A | top bin |
| C31U G69U U78C A118G | bottom bin |
| A50U G60A G93A | middle bin |
| A66G C72U G107A C123A | bottom bin |
| G63U A119G | top bin |
| G58A G60A | top bin |
| U32C G48C | middle bin |
